pIC50: −log10 of the molar value.
We begin with pIC50 values for NAD-dependent protein deacylase sirtuin-5, mitochondrial (Homo sapiens, UniProt Q9NXA8), as collected from the published literature.
ASSAY ENDPOINT: pIC50

> print(dat)
                               input.smiles  assay.endpoint  bound.sign  meas.value
1  CCn1c(=O)n(CCc2ccccc2)c(=O)c2[nH]c(SSc3nc4c([nH]3)c(=O)n(CCc3ccccc3)c(=O)n4CC)nc21           pIC50           =        6.35
2  C#CCCCC1(CCC(=O)N[C@@H](CCCCNC(=S)CCCCCCCCCCCCC)C(=O)N[C@@H](C)C(=O)N[C@@H](C)C(=O)OC)N=N1           pIC50           <        2.30
3  CCCn1c(=O)c2[nH]c(SSc3nc4c([nH]3)c(=O)n(CCC)c(=O)n4CCC)nc2n(CCC)c1=O           pIC50           =        6.41
4  CCn1c(=O)n(CCc2ccc(NC(=O)OC(C)(C)C)cc2)c(=O)c2[nH]c(SSc3nc4c([nH]3)c(=O)n(CCc3ccc(NC(=O)OC(C)(C)C)cc3)c(=O)n4CC)nc21           pIC50           =        6.00
5  Br.CN(C)C(SCCCCCCn1cnc2c(-c3cc(Br)c(Br)[nH]3)nccc21)=[N+](C)C.[Cl-]           pIC50           <        3.70
6  CCn1c(=O)n(CCc2ccc(N)cc2)c(=O)c2[nH]c(SSc3nc4c([nH]3)c(=O)n(CCc3ccc(N)cc3)c(=O)n4CC)nc21           pIC50           =        6.04
